Below: a set of entries, each annotated with reported OD450.
Target: T1, human MSLN-R2-his protein (human, UniProt Q13421 391-486)
T1 construct: it is put last here; also called human MSLN-R2 protein; hMSLN-R2-his; not shown: His tag
T1 sequence (Q13421 other isoform, or with tags, fused parts or gaps): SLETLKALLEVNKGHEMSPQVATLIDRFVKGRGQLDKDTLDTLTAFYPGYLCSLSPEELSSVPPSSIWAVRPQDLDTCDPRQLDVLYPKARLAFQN
Experiment: ELISA on coated antigen, antibody 0.02 nM
All answers are understood in OD, so give the number only.

**Query** Identify OD450 associated with the binder S009-F7.26.15 (antibody, human IgG1, kappa, V domains shown, Human-murine chimeric antibody, human IgG1 heavy and kappa light constant regions) VH: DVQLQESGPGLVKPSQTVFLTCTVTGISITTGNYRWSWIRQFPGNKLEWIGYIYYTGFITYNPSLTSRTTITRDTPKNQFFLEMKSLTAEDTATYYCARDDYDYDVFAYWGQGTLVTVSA VL: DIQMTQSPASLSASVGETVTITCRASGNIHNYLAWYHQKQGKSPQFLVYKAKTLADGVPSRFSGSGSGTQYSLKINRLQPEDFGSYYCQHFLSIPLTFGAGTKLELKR
**Result** 0.05

New cases:
**Query** Tell me OD450 reported for S009-F7.18.10 (antibody, human IgG1, kappa, V domains shown, Human-murine chimeric antibody, human IgG1 heavy and kappa light constant regions) VH: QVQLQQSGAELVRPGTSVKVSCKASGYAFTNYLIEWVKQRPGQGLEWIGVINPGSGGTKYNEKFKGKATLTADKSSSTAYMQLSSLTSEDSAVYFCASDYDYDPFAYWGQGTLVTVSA VL: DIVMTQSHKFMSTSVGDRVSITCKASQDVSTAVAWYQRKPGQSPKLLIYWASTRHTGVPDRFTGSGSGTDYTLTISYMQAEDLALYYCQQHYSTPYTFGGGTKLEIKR
**Result** 0.05
